# System: Escherichia coli IFO 3972
# ASSAY_INFO: MIC by liquid medium dilution technique, 96-well microplate, gram-negative bacteria
# Format: cell-based
# TEST_CONTEXT: IFO 3972, 24 h
REPORTED_ENDPOINT: Antimicrobial Activities (MIC) E. coli (µM)
One number for each entry, in µM.

Study these solved cases before continuing.
>  <SUBSTANCE>
H-RKKKRKVYIGSR-NH2 [comparative sample 7, RKKKRKVYIGSR-CONH2, reference compound]

>  <Antimicrobial Activities (MIC) E. coli [µM]>
100

$$$$
>  <SUBSTANCE>
H-RKKRRQRRRLMWWML-NH2 [sample 19, RKKRRQRRRLMWWML-CONH2]

>  <Antimicrobial Activities (MIC) E. coli [µM]>
12.5

$$$$
>  <SUBSTANCE>
H-RKKKRKVVVYWLLR-NH2 [sample 9, RKKKRKVVVYWLLR-CONH2]

>  <Antimicrobial Activities (MIC) E. coli [µM]>
12.5

$$$$

# per-item lookup of Antimicrobial Activities (MIC) E. coli; items listed below
1. H-RIRKKLRLMWWMLR-NH2 [sample 14, RIRKKLRLMWWMLR-CONH2]
2. H-LKRKLQRLMWWML-NH2 [sample 15, LKRKLQRLMWWML-CONH2]

Response given:
6.3
12.5

====

# Tested on: Escherichia coli IFO 3972
# ASSAY_INFO: MIC by liquid medium dilution technique, 96-well microplate, gram-negative bacteria
# Format: cell-based
# TEST_CONTEXT: IFO 3972, 24 h
# Protocol: Regarding the antimicrobial peptide (samples 1 to 20) related to the present invention, the antimicrobial activities (minimum inhibitory concentration: MIC) with respect to gram-negative bacteria (Escherichia coli IFO 3972) and gram-positive bacteria (Staphylococcus aureus IFO 12732) were determined by a liquid medium dilution technique using a 96-well microplate. […]
Field: Antimicrobial Activities (MIC) E. coli. Provide a value for each of the substances that follow.
Include the unit right after the number.

Previously resolved entries follow.
>  <SUBSTANCE>
H-LMWWMLRKKKRKV-NH2 [sample 5, LMWWMLRKKKRKV-CONH2]

>  <TEST_RESULT>
50 µM

$$$$
>  <SUBSTANCE>
H-RIRKKLRLMWWMLAR-NH2 [sample 7, RIRKKLRLMWWMLAR-CONH2]

>  <TEST_RESULT>
6.3 µM

$$$$
>  <SUBSTANCE>
H-RKRKRKRLMWWML-NH2 [sample 13, RKRKRKRLMWWML-CONH2]

>  <TEST_RESULT>
6.3 µM

$$$$
>  <SUBSTANCE>
H-LMWWMLRIRKKLRVGR-NH2 [sample 20, LMWWMLRIRKKLRVGR-CONH2]

>  <TEST_RESULT>
6.3 µM

$$$$

Challenge: GET /values?readout=Antimicrobial Activities (MIC) E. coli&system=Escherichia coli IFO 3972&item= H-RKKKRKVLMWWML-NH2 [sample 2, RKKKRKVLMWWML-CONH2]
Response given: 12.5 µM

====

# Test system: Escherichia coli IFO 3972
# ASSAY_INFO: MIC by liquid medium dilution technique, 96-well microplate, gram-negative bacteria
# Type: cell-based
# TEST_CONTEXT: IFO 3972, 24 h
Exercise: state measured Antimicrobial Activities (MIC) E. coli for each of the substances provided.
Numbers only, in µM.

>  <SUBSTANCE>
H-RKRRLMWWMLKKLR-NH2 [sample 17, RKRRLMWWMLKKLR-CONH2]

>  <TEST_RESULT>
6.3

$$$$

Now let's try a different one.
Challenge: Would you mind telling me what Antimicrobial Activities (MIC) E. coli value was observed for H-RKKKRKVLYLGAVR-NH2 [sample 12, RKKKRKVLYLGAVR-CONH2] ?
Response given: 50

====

Please go through the items and note down their Antimicrobial Activities (MIC) E. coli.
# Tested on: Escherichia coli IFO 3972
# ASSAY_INFO: MIC by liquid medium dilution technique, 96-well microplate, gram-negative bacteria
# Assay type: cell-based
# TEST_CONTEXT: IFO 3972, 24 h
Numbers only, in µM.

Some solved cases for reference:
>  <SUBSTANCE>
H-LKRKLQRLMWWMLR-NH2 [sample 18, LKRKLQRLMWWMLR-CONH2]

>  <UNITS_TEXT>
µM

>  <TEST_RESULT>
12.5

$$$$
>  <SUBSTANCE>
Ac-RKKKRKVLMWWMLR-NH2 [sample 8, Ac-RKKKRKVLMWWMLR-CONH2]

>  <UNITS_TEXT>
µM

>  <TEST_RESULT>
12.5

$$$$
>  <SUBSTANCE>
H-RIRKKLRLMWWML-NH2 [sample 3, RIRKKLRLMWWML-CONH2]

>  <UNITS_TEXT>
µM

>  <TEST_RESULT>
6.3

$$$$

Turning to the following substance.
Challenge: Give its Antimicrobial Activities (MIC) E. coli value. Item: H-RKKKRKVFFYMVIR-NH2 [sample 11, RKKKRKVFFYMVIR-CONH2]
Response given: 6.3

====

# System: S. aureus
# Format: cell-based, Staphylococcus aureus
Assign Antimicrobial Activities (MIC) against S. aureus, horse serum concentration 10% to each entry below.
Give bare numbers, in µM.

>  <SUBSTANCE>
H-RIRKKLRLMWWMLAR-NH2 [sample 7, RIRKKLRLMWWMLAR-CONH2]

>  <UNITS_TEXT>
µM

>  <TEST_RESULT>
3.1

$$$$
>  <SUBSTANCE>
H-LMWWMLRIRKKLR-NH2 [sample 4, LMWWMLRIRKKLR-CONH2]

>  <UNITS_TEXT>
µM

>  <TEST_RESULT>
6.3

$$$$
>  <SUBSTANCE>
H-RKKKRKVLMWWMLR-OH [sample 16, RKKKRKVLMWWMLR-COOH]

>  <UNITS_TEXT>
µM

>  <TEST_RESULT>
3.1

$$$$
>  <SUBSTANCE>
H-RIRKKLRLMWWML-NH2 [sample 3, RIRKKLRLMWWML-CONH2]

>  <UNITS_TEXT>
µM

>  <TEST_RESULT>
3.1

$$$$
>  <SUBSTANCE>
H-RKKKRKVLMWWMLR-NH2 [sample 1, RKKKRKVLMWWMLR-CONH2]

>  <UNITS_TEXT>
µM

>  <TEST_RESULT>
3.1

$$$$

// batch mode: one Antimicrobial Activities (MIC) against S. aureus, horse serum concentration 10% value per listed entry
1. H-LKRKLQRLMWWML-NH2 [sample 15, LKRKLQRLMWWML-CONH2]
2. H-RIRKKLRLMWWMLR-NH2 [sample 14, RIRKKLRLMWWMLR-CONH2]
3. H-RKKKRKVLMWWMLKPV-NH2 [sample 21, RKKKRKVLMWWMLKPV-CONH2]

Response given:
1: 6.3; 2: 6.3; 3: 1.6

Challenge: // lookup Antimicrobial Activities (MIC) against S. aureus, horse serum concentration 10% for Ac-RKKKRKVLMWWMLR-NH2 [sample 8, Ac-RKKKRKVLMWWMLR-CONH2]
Response given: 3.1
